Consider the following compounds; for each one, report its IC50.
- Measured On: plasmin (Homo sapiens, UniProt P00747)
- Construct: fibrinogen substrate
- Sequence (P00779 27-440): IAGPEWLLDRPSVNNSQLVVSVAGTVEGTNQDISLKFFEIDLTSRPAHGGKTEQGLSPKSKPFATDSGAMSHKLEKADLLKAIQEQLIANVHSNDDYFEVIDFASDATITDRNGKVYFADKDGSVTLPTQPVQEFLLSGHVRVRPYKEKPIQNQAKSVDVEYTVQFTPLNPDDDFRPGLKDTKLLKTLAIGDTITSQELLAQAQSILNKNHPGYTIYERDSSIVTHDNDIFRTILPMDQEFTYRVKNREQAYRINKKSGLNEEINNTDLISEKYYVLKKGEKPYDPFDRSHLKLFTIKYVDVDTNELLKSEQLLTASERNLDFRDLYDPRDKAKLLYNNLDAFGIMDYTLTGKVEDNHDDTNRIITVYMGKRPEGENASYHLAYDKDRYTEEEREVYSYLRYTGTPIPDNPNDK
- Sequence (P00747 97-810): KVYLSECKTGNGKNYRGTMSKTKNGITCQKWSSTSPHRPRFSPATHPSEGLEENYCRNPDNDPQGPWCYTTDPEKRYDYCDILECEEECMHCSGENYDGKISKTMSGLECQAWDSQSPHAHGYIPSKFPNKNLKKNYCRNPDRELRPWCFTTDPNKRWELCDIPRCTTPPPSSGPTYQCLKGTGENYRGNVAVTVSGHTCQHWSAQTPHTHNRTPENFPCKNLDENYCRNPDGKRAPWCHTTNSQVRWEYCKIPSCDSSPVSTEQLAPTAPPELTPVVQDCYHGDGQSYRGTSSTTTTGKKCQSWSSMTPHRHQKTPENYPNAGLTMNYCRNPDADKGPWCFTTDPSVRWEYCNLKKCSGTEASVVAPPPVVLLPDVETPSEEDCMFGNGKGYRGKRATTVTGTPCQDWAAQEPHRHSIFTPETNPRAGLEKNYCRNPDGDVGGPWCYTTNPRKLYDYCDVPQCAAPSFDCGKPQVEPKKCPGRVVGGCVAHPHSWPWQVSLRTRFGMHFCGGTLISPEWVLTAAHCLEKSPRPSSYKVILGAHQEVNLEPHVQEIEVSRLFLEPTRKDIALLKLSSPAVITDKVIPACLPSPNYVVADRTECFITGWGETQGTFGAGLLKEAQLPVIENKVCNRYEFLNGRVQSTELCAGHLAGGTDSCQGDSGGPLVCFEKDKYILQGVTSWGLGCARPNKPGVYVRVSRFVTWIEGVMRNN
- Procedure Summary: Determination of Anti-Plasmin Activity
- Type: biochemical
- Experimental Setup: fibrinogen substrate, plasminogen from human serum + streptokinase, pH 7.2, 37° C., 20 minutes; read-out: IC50 Plasmin (converted)
Counter-ions that a name gives are not always drawn. Where a SMILES comes first, the peptide text is derived from it. [ ]: non-standard residue; d: D form. The star is where a group is joined. pGlu = O=C1CC[C@@H](C(=O)O)N1; Cbz = O=C(OCc1ccccc1)*
Just the number please, in µM, no unit attached.

Ask: Fill in reported IC50 for this entry: CC(C)C[C@H](NC(=O)Cc1ccccc1)C(=O)N[C@H](C=O)CCCNC(=N)N [Compound No. 15, hydrochloride]
Reply: 14.6

Ask: Fill in reported IC50 for this entry: CC(C)C[C@H](NC(=O)OCc1ccccc1)C(=O)N[C@H](C=O)CCCNC(=N)N [Compound No. 25, hydrochloride]
Reply: 33.9

Ask: Fill in reported IC50 for this entry: CC(=O)N[C@@H](CC(C)C)C(=O)N[C@@H](CC(C)C)C(=O)N[C@H](C=O)CCCNC(=N)N
Reply: 11

Ask: Fill in reported IC50 for this entry: CC(C)C[C@H](NC(=O)[C@@H]1CCC(=O)N1)C(=O)N[C@H](C=O)CCCNC(=N)N [Compound No. 31, hydrochloride] ([pGlu]-Leu-Arg-aldehyde)
Reply: 1.19

Ask: Fill in reported IC50 for this entry: CC(C)C[C@H](NC(=O)Cc1ccccc1O)C(=O)N[C@H](C=O)CCCNC(=N)N [Compound No. 18, hydrochloride]
Reply: 12.9

Ask: Fill in reported IC50 for this entry: CCC(CC)C(=O)N[C@@H](CC(C)C)C(=O)N[C@H](C=O)CCCNC(=N)N [Compound No. 2, hydrochloride]
Reply: 81.2

Ask: Fill in reported IC50 for this entry: CCCCCCCCC(=O)N[C@@H](CC(C)C)C(=O)N[C@H](C=O)CCCNC(=N)N [Compound No. 5, hydrochloride]
Reply: 2.68

Ask: Fill in reported IC50 for this entry: CC(C)C[C@H](NC(=O)C(O)c1ccccc1)C(=O)N[C@H](C=O)CCCNC(=N)N (mixture of isomers) [Compound No. 35, hydrochloride]
Reply: 3.17

Ask: Fill in reported IC50 for this entry: CC(C)C[C@H](NC(=O)Cc1ccc([N+](=O)[O-])cc1)C(=O)N[C@H](C=O)CCCNC(=N)N [Compound No. 17, hydrochloride]
Reply: 3.61

Ask: Fill in reported IC50 for this entry: CC(C)C[C@H](NC(=O)[C@H](Cc1ccccc1)NC(=O)OCc1ccccc1)C(=O)N[C@H](C=O)CCCN=C(N)N [Compound No. 36, hydrochloride] (Cbz-Phe-Leu-Arg-aldehyde)
Reply: 1.24

Ask: Fill in reported IC50 for this entry: CCCC(=O)N[C@@H](CC(C)C)C(=O)N[C@H](C=O)CCCNC(=N)N [Compound No. 1, hydrochloride]
Reply: 37.8

Ask: Fill in reported IC50 for this entry: CC(C)CC(=O)N[C@@H](CC(C)C)C(=O)N[C@H](C=O)CCCNC(=N)N [Compound No. 4, hydrochloride]
Reply: 21.4

Ask: Fill in reported IC50 for this entry: COc1ccc(C(=O)N[C@@H](CC(C)C)C(=O)N[C@H](C=O)CCCNC(=N)N)cc1 [Compound No. 11, hydrochloride]
Reply: 39.1

----------
- Measured On: plasmin (Homo sapiens, UniProt P00747)
- Construct: fibrinogen substrate
- Procedure Summary: Determination of Anti-Plasmin Activity
- Type: biochemical
- Experimental Setup: fibrinogen substrate, plasminogen from human serum + streptokinase, pH 7.2, 37° C., 20 minutes; read-out: IC50 Plasmin (converted)
Counter-ions that a name gives are not always drawn.
Measurement Type: IC50 (µM)
Just the number please, in µM, no unit attached.

Ask: Fill in reported IC50 for this entry: CC(C)C[C@H](NC(=O)Cc1ccccc1[N+](=O)[O-])C(=O)N[C@H](C=O)CCCNC(=N)N [Compound No. 16, hydrochloride]
Reply: 42.5

Ask: Fill in reported IC50 for this entry: CC(C)C[C@H](NC(=O)C1CCCCC1)C(=O)N[C@H](C=O)CCCNC(=N)N [Compound No. 6, hydrochloride]
Reply: 56

Ask: Fill in reported IC50 for this entry: Cc1ccc(C(=O)N[C@@H](CC(C)C)C(=O)N[C@H](C=O)CCCNC(=N)N)cc1 [Compound No. 10, hydrochloride]
Reply: 32.9

Ask: Fill in reported IC50 for this entry: CC(C)C[C@H](NC(=O)c1ccco1)C(=O)N[C@H](C=O)CCCNC(=N)N [Compound No. 26, hydrochloride]
Reply: 90.3

Ask: Fill in reported IC50 for this entry: Cc1ccc(S(=O)(=O)N[C@@H](CC(C)C)C(=O)N[C@H](C=O)CCCNC(=N)N)cc1 [Compound No. 14, hydrochloride]
Reply: 14.5

Ask: Fill in reported IC50 for this entry: CCCCCC(=O)N[C@@H](CC(C)C)C(=O)N[C@H](C=O)CCCNC(=N)N [Compound No. 3, hydrochloride]
Reply: 16.8
